# max response per entry
Test: qHTS assay for cell viability of HEK293 cells (AID 743288); also: % is scaled to controls: 0 for no effect and ±100 for the full control effect; nearly all actives have a fitted effect of over 50% in size
Conditions: ATP luminescence (CellTiter-Glo), 18 h, stronger effect = lower value
Results filed as inconclusive are left out.
Respond with the bare value in %.

Solved entries:
CCOCC(=O)O = -0.256
Cc1ccc(C#N)cc1 = -2.64
BrC(Br)C(Br)Br = 6.64
CCC(C)=O = 4.69

Asked: Which value of max response has been reported for CC1CCCO1 (stereo not drawn) in the records?
Given back: -15.7

Asked: Given the entry "Cc1cccc(C(=O)O)c1[N+](=O)[O-]" , report its measured max response.
Given back: -1.21

* * *

Listed here: items and their measured caspase-3 activation.
Test: Cellular Toxicity (caspase-3) Mesangial (AID 660);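 also: combined caspase 3 and 7 activity read by Caspase-Glo luminescence; cells exposed to compound for 16 h before the caspase read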
Conditions: mesangial cells, normalized: DMSO 0%, 100 µM tamoxifen 100%; at 91.7 µM (top of the series)
From the text: NIH Chemical Genomics Center [NCGC] NIH Molecular Libraries Screening Centers Network [MLSCN] National Institutes of Environmental Health Sciences [NIEHS] National Toxicology Program [NTP] We have developed a 1536-well cell-based assay for quantitative high throughput screening (qHTS) against a number of cell lines to determine in vitro caspase 3/7 of small molecules. […] 8. Detection; Luminescence; Viewlux plate reader […]
The source made the active and inactive calls. Calls follow the shape of the dose curve; as a rule, active = well fitted activation curve with a large enough effect; inconclusive = small, poorly fitted or top-dose-only effect; inactive = flat fitted curve, though single readings scatter.

CC/C=C/C#N = -0.969% (inactive)
C[C@@H]1CC2(OC3C[C@@]4(C)C5=CC[C@H]6C(C)(C)C(O[C@@H]7OC[C@@H](O)[C@H](O)[C@H]7O)CC[C@@]67C[C@@]57CC[C@]4(C)C31)OC(O)C1(C)OC21 (stereo not given in full) = -0.636% (inactive)
C1CCOC1 = -0.124% (inactive)
CCC1CO1 (stereo not given) = 0.872% (inactive)
Cc1cscn1 = 0.991% (inactive)

In the following, a different compound is considered.
Asked: Value lookup for caspase-3 activation; key = "Cc1ccc(C)c([N+](=O)[O-])c1"
Given back: 0.386% (inactive)

* * *

Assay: qHTS assay for environmental chemicals that activate the Aryl hydrocarbon Receptor (AhR) signaling pathway (AID 651777); also: % of control where 0% means no effect; nearly all actives have a fitted effect of over 15% in size
Conditions: 1A2-DRE human hepatoma cells, luciferase, 24 h; stronger effect = higher value
Inconclusive results are not listed.
experimentalEndpoint: activation (%)
Reply numerically in %, unit not repeated.

Recorded activation, per entry:
Cc1cccc2cccnc12 = -0.26
O=[N+]([O-])c1cccc(C(F)(F)F)c1 = 0.319
O=C(O)CNC(=O)c1ccc(CO)o1 = -1.34
Cc1cc([N+](=O)[O-])ccc1N = 0.911
CC(C)CO = -1.47

Asked: Field request: activation | item: "N#CC1(O)CCCCC1"
Given back: 2.1

Asked: activation lookup needed for "CCCCCCCN" , thanks.
Given back: -0.576

Asked: Requested read-out: activation. Entry: "ON=C1CCCCC1"
Given back: 0.388

Asked: Quick one: activation of "FC(F)(F)c1cccc(Cl)c1" ?
Given back: -0.497

Asked: Data request, read-out activation, for "Cc1ccccc1C(N)=O"
Given back: -0.0237

Asked: So what's the measured activation for this one? "O=Cc1ccc(C(=O)O)cc1"
Given back: -0.237

Asked: Which activation is listed for "O=[N+]([O-])c1ccc(Cl)cc1Cl" ?
Given back: -1.71

Asked: # lookup: activation of CC(C)(C)OCC1CO1 (configuration not stated)
Given back: 2.26

Asked: Could you tell me which activation is on file for "CCCCCCC=O" ?
Given back: -0.184

Asked: GET /values?readout=activation&item= CC(O)CC(C)O (configuration not stated)
Given back: -0.953

Asked: Reported activation for "CNC(=O)c1ccccc1" : what is it?
Given back: -0.192

Asked: For the compound shown here, "C(=C/c1ccccc1)/c1ccccc1" , give the reported activation.
Given back: 1.55

Asked: // activation lookup, key: "CCCC=O"
Given back: -0.933

Asked: Query: activation; subject: "CCCCCCCCC"
Given back: 0.0249
